Biological target: Human immunodeficiency virus type 1 reverse transcriptase (Human immunodeficiency virus 1, UniProt Q72547)
pIC50: −log10 of the molar value.
recorded metric: pIC50

A: CCCCOC(C#CC1CC1)(c1cc(CC)c(C)nc1O)C(F)(F)F (configuration not stated)
B: Oc1ncccc1C(C#CC1CC1)(OCc1ccccn1)C(F)(F)F (configuration not stated)
C: CCc1cc(C(C#CC2CC2)(OCc2cc(OC)cc(OC)c2)C(F)(F)F)c(O)nc1C (configuration not stated)
D: CCc1cc(C(C#CC2CC2)(OCc2c(F)cccc2F)C(F)(F)F)c(O)nc1C (configuration not stated)
Query: Rank the 4 compounds shown above by pIC50, smallest number first. Response format: the labels, sorted as the prompt asks.
Reply: B, C, D, A

a: Oc1ncccc1C(C#CC1CC1)(Oc1cccc(Oc2ccccc2)c1)C(F)(F)F (configuration not stated)
b: CCc1cc(C(C#CC2CC2)(OCc2c(F)cccc2Cl)C(F)(F)F)c(O)nc1C (configuration not stated)
c: CCOC(C#CC1CC1)(c1cc(CC)c(C)nc1O)C(F)(F)F (configuration not stated)
d: CCc1cc(C(C#CC2CC2)(OC)C(F)(F)F)c(O)nc1C (configuration not stated)
Query: Which order do these items take when sorted by rising pIC50? List them. Would you mind listing the labels in the order asked for?
Reply: a, b, d, c
(a: 4.61, b: 5.22, d: 6.11, c: 6.74)
